Sourced from ChEMBL document CHEMBL1131036

testSystem: Human rhinovirus A protease (Human rhinovirus sp.)
assayDetails: Catalytic rate constant (Kobs/[I]) evaluated against human rhinovirus (HRV) serotype 14 3C Protease (3CP)
setupConditions: Human rhinovirus B (HRV-14)
K obs / 1 for assorted molecules

{"columns": ["smilesString", "qualifierOperator", "K obs / 1 [M⁻¹ s⁻¹]"],
 "data": [
  ["CC(C)C[C@H](NC(=O)OCc1ccccc1)C(=O)N[C@@H](Cc1ccccc1)C(=O)N[C@H](/C=C/C(=O)N1CCc2cccc(S(C)(=O)=O)c21)CCC(N)=O", "<", 1000],
  ["CC(C)C[C@H](NC(=O)OCc1ccccc1)C(=O)N[C@@H](Cc1ccccc1)C(=O)N[C@H](/C=C/c1ccccn1)CCC(N)=O", "=", 120],
  ["CC(C)C[C@H](NC(=O)OCc1ccccc1)C(=O)N[C@@H](Cc1ccccc1)C(=O)N[C@H](/C=C/C(=O)N1CCc2ccc([N+](=O)[O-])cc21)CCC(N)=O", "=", 29000],
  ["CCN(CC)c1ccc(C(=O)/C=C/[C@H](CCC(N)=O)NC(=O)[C@H](Cc2ccccc2)NC(=O)[C@H](CC(C)C)NC(=O)OCc2ccccc2)cc1", "=", 4500],
  ["CC(C)C[C@H](NC(=O)OCc1ccccc1)C(=O)N[C@@H](Cc1ccccc1)C(=O)N[C@H](/C=C/C(=O)N1CCOC1=O)CCC(N)=O", "=", 600000],
  ["CC(C)C[C@H](NC(=O)OCc1ccccc1)C(=O)N[C@@H](Cc1ccccc1)C(=O)N[C@H](/C=C/C(=O)N1CCCO1)CCC(N)=O", "=", 14000],
  ["CON(C)C(=O)/C=C/[C@H](CCC(N)=O)NC(=O)[C@H](Cc1ccccc1)NC(=O)[C@H](CC(C)C)NC(=O)OCc1ccccc1", "=", 5900],
  ["CC(C)C[C@H](NC(=O)OCc1ccccc1)C(=O)N[C@@H](Cc1ccccc1)C(=O)N[C@H](/C=C/C(=O)Nc1ccccc1)CCC(N)=O", "=", 200],
  ["CC(C)C[C@H](NC(=O)OCc1ccccc1)C(=O)N[C@@H](Cc1ccccc1)C(=O)N[C@H](/C=C/C(=O)N1CCc2cc([N+](=O)[O-])ccc21)CCC(N)=O", "=", 12000],
  ["CC(C)C[C@H](NC(=O)OCc1ccccc1)C(=O)N[C@@H](Cc1ccccc1)C(=O)N[C@H](/C=C/C(=O)N(C)O)CCC(N)=O", "=", 1800],
  ["CC(C)C[C@H](NC(=O)OCc1ccccc1)C(=O)N[C@@H](Cc1ccccc1)C(=O)N[C@H](/C=C/C#N)CCC(N)=O", "=", 0],
  ["CCOC(=O)/C(C)=C/[C@H](CCC(N)=O)NC(=O)[C@H](Cc1ccccc1)NC(=O)[C@H](CC(C)C)NC(=O)OCc1ccccc1", "=", 7300],
  ["CCOC(=O)/C(F)=C/[C@H](CCC(N)=O)NC(=O)[C@H](Cc1ccccc1)NC(=O)[C@H](CC(C)C)NC(=O)OCc1ccccc1", "=", 60],
  ["CC(C)C[C@H](NC(=O)OCc1ccccc1)C(=O)N[C@@H](Cc1ccccc1)C(=O)N[C@H](/C=C/C(=O)OCC(C)(C)C)CCC(N)=O", "=", 9800],
  ["CC(C)C[C@H](NC(=O)OCc1ccccc1)C(=O)N[C@@H](Cc1ccccc1)C(=O)N[C@H](/C=C/C(=O)O)CCC(N)=O", "=", 30],
  ["CSc1cccc2c1N(C(=O)/C=C/[C@H](CCC(N)=O)NC(=O)[C@H](Cc1ccccc1)NC(=O)[C@H](CC(C)C)NC(=O)OCc1ccccc1)CC2", "=", 300],
  ["CC(C)C[C@H](NC(=O)OCc1ccccc1)C(=O)N[C@@H](Cc1ccccc1)C(=O)N[C@H](/C=C/C(=O)N1CCc2cc(F)ccc21)CCC(N)=O", "=", 5400],
  ["CC(C)C[C@H](NC(=O)OCc1ccccc1)C(=O)N[C@@H](Cc1ccccc1)C(=O)N[C@H](/C=C/C(=O)OC1CCCC1)CCC(N)=O", "=", 14600],
  ["CC(C)C[C@H](NC(=O)OCc1ccccc1)C(=O)N[C@@H](Cc1ccccc1)C(=O)N[C@H](/C=C/C(=O)OC1CCCCC1)CCC(N)=O", "=", 3700],
  ["CC(C)C[C@H](NC(=O)OCc1ccccc1)C(=O)N[C@@H](Cc1ccccc1)C(=O)N[C@H](/C=C/C(=O)N1CCc2cc(Br)ccc21)CCC(N)=O", "=", 5800],
  ["CC(C)C[C@H](NC(=O)OCc1ccccc1)C(=O)N[C@@H](Cc1ccccc1)C(=O)N[C@H](/C=C/C(=O)N1CCCC1)CCC(N)=O", "=", 2100],
  ["CC(C)C[C@H](NC(=O)OCc1ccccc1)C(=O)N[C@@H](Cc1ccccc1)C(=O)N[C@H](/C=C/C(=O)N1CCc2ccc(S(=O)(=O)N(C)C)cc21)CCC(N)=O", "=", 28300],
  ["CC(C)C[C@H](NC(=O)OCc1ccccc1)C(=O)N[C@@H](Cc1ccccc1)C(=O)N[C@H](/C=C1\\CCOC1=O)CCC(N)=O", "=", 10900],
  ["COC(=O)/C=C\\[C@H](CCC(N)=O)NC(=O)[C@H](Cc1ccccc1)NC(=O)[C@H](CC(C)C)NC(=O)OCc1ccccc1", "=", 2400],
  ["CC(C)C[C@H](NC(=O)OCc1ccccc1)C(=O)N[C@@H](Cc1ccccc1)C(=O)N[C@H](/C=C/c1ccno1)CCC(N)=O", "=", 600],
  ["CC(C)C[C@H](NC(=O)OCc1ccccc1)C(=O)N[C@@H](Cc1ccccc1)C(=O)N[C@H](/C=C/C(=O)N1CCc2cc(Cl)ccc21)CCC(N)=O", "=", 450],
  ["CC(C)C[C@H](NC(=O)OCc1ccccc1)C(=O)N[C@@H](Cc1ccccc1)C(=O)N[C@H](/C=C/C(=O)n1cccc1)CCC(N)=O", "=", 400000],
  ["COC(=O)/C=C/[C@H](CCC(N)=O)NC(=O)[C@H](Cc1ccccc1)NC(=O)[C@H](CC(C)C)NC(=O)OCc1ccccc1", "=", 20000]
]}
